System: [Chlorella] fusca
Experiment: Antialgal activity against 'Chlorella' fusca by agar diffusion test
Type: functional, Scenedesmus fuscus
Experimental readout: inhibition zone (IZ) (mm)
Numbers only, in mm.

Here are 3 molecules together with their reported answers.
>>> test_value("CN(C)[C@@H]1C(O)=C(C(N)=O)C(=O)[C@@]2(O)C(O)=C3C(=O)c4c(O)cccc4[C@@](C)(O)[C@H]3C[C@@H]12")
10
>>> test_value("CCC[C@@H](Cc1oc(=O)cc(OC)c1CO)OC(C)=O")
10
>>> test_value("COc1cc(=O)oc2c1CO[C@@H](CC(C)=O)C2")
6

Provide reported inhibition zone (IZ) for each item, in the same order as listed.
1. CCCCCc1oc(=O)cc(OC)c1CO
2. C[C@@H]1C[C@@H]([C@H](O)CC2CC(=O)NC(=O)C2)C(=O)[C@@H](C)C1 [CYCLOHEXIMIDE]
3. CC1(C)S[C@@H]2[C@H](NC(=O)Cc3ccccc3)C(=O)N2[C@H]1C(=O)O

[5, 35, 0]
